# STUDY TARGET: HLA-A*3301 (human)
# ASSAY PROCEDURE: competition vs 125I probe, purified HLA
Non-standard residues stand in square brackets, D forms with d. No end group written: not given here. Abu = CC[C@H](N)C(=O)O
ASSAY READOUT: IC50 (nM)
Give just the numeric value; nM need not be written.

Would you mind telling me what IC50 value was observed for [Abu]VYSPALNR [p53.124.B1V2R9] ? 85
